The values you see were collected from PubChem BioAssay (Tox21).

Test: qHTS assay to identify aromatase inhibitors - cell viability counter screen (AID 743084);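 note: cells stimulated with testosterone during compound exposure; nearly all actives have a fitted effect of over 55% in size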
Details: MCF-7 aro ERE viability, CellTiter-Fluor, 24 h; series mostly up to 70.3 µM
Results filed as inconclusive are left out. Active and inactive are the calls of the source. Calls come from the whole dose curve; as a rule, active = well fitted cell-killing curve with a large enough effect in the repeat runs; inconclusive = weak or mixed curves, or effect the other way; inactive = no such curve, though single readings can be large or run the other way.
Labels: active, inactive

{"molecule": "CC1(C)O[C@@H]2C[C@H]3[C@@H]4C[C@H](F)C5=CC(=O)C=C[C@]5(C)[C@H]4[C@@H](O)C[C@]3(C)[C@]2(C(=O)CO)O1", "class_label": "inactive"}
{"molecule": "COC(=O)CCS", "class_label": "inactive"}
{"molecule": "CCCCN1CCCC1C(=O)Nc1c(C)cc(C)cc1C (stereo unspecified)", "class_label": "inactive"}
{"molecule": "C1C[C@@H]2[C@H]3CC[C@H](C3)[C@@H]2C1", "class_label": "inactive"}
{"molecule": "CCCCOc1ccc(OCCCN2CCOCC2)cc1", "class_label": "inactive"}
{"molecule": "Cc1ccccc1N=C(N)Nc1ccccc1C", "class_label": "inactive"}
{"molecule": "Cc1cc(=O)c2c(O)c3c(O)cc(=O)c4c3c3c(cc(O)c1c23)C(C)(C)C=4O", "class_label": "inactive"}
{"molecule": "O=C1c2ccccc2C(=O)N1CCc1noc(-c2ccc(CN3CCCCCC3)s2)n1", "class_label": "inactive"}
{"molecule": "OC(CCN1CCCC1)(c1ccccc1)C1CCCCC1 (stereo unspecified)", "class_label": "inactive"}
{"molecule": "CN1C(=O)OC(C)(C)C1=O", "class_label": "inactive"}
{"molecule": "NC(=O)c1ccncc1", "class_label": "inactive"}
{"molecule": "c1cc(N(CC2CO2)CC2CO2)ccc1Cc1ccc(N(CC2CO2)CC2CO2)cc1 (stereo unspecified)", "class_label": "active"}
{"molecule": "CCCCCC[C@@H](O)C/C=C\\CCCCCCCC(=O)OCC(O)CO (stereo partly specified)", "class_label": "inactive"}
{"molecule": "CC1(C)[C@H](C(=O)O)N2C(=O)C[C@H]2S1(=O)=O", "class_label": "inactive"}
{"molecule": "CC(C)=CC(=O)C=C(C)C", "class_label": "inactive"}
{"molecule": "O=C1Cc2ccccc2N1c1c(Cl)cccc1Cl", "class_label": "inactive"}
{"molecule": "CC1=C(CC=O)C(C)(C)CCC1", "class_label": "inactive"}
{"molecule": "CC/C=C1/OC(=O)c2ccccc21", "class_label": "inactive"}
{"molecule": "O=c1[nH]c2ccc(Cl)cc2o1", "class_label": "inactive"}
{"molecule": "C[C@@H](O)[C@H]1C(=O)N2C(C(=O)O)=C([C@H]3CCCO3)S[C@H]12", "class_label": "inactive"}
{"molecule": "CCCCCCNC(=O)n1cc(F)c(=O)[nH]c1=O", "class_label": "inactive"}
{"molecule": "Cc1ccco1", "class_label": "inactive"}
{"molecule": "CN(C)CCC=C1c2ccccc2C=Cc2ccccc21", "class_label": "inactive"}
{"molecule": "CCCCCCCC/C=C\\CCCCCCCCO", "class_label": "inactive"}
{"molecule": "CC(C)(C)C(=O)C(=O)O", "class_label": "inactive"}
{"molecule": "C[C@@H]1CN(CCCn2c3ccccc3c3ccccc32)C[C@H](C)N1", "class_label": "inactive"}

---

Molecular target: Estrogen receptor beta (Homo sapiens) (UniProt Q92731)
Sequence (Q92731 whole entry, looked up): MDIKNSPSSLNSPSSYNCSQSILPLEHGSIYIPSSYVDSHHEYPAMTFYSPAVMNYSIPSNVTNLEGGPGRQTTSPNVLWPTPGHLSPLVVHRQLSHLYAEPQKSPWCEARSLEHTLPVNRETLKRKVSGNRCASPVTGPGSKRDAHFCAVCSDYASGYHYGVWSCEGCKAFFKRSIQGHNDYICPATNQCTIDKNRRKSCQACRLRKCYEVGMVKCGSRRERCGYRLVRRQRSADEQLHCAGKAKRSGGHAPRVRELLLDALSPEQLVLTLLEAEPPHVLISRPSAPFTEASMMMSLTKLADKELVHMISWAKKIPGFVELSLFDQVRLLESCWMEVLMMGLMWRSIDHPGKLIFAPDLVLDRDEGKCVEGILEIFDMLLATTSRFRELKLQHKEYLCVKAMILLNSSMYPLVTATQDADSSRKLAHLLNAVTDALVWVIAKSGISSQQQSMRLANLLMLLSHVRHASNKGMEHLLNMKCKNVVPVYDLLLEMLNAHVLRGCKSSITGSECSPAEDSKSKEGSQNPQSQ
Assay: qHTS assay to identify small molecule agonists of the estrogen receptor beta (ER-beta) signaling pathway (AID 1259377); for activation: % is set by controls: 0 for no effect and ±100 for the full control effect
Conditions: ER-beta-UAS-bla HEK293T, beta-lactamase FRET ratio, 16 h; series mostly up to 92.4 µM
Results filed as inconclusive are left out. Activity calls are given as the source filed them. Calls follow the shape of the dose curve; as a rule, active = well fitted activation curve with a large enough effect in the signal ratio in the repeat runs (not every such curve was filed as active); inconclusive = weak or mixed curves, or effect the other way; inactive = flat fitted curve, though single readings scatter; the % refers to the signal ratio.
Labels: class 1 (active), class 0 (inactive)

{"molecule": "C[C@@H](O[C@H]1OCCN(Cc2n[nH]c(=O)[nH]2)[C@H]1c1ccc(F)cc1)c1cc(C(F)(F)F)cc(C(F)(F)F)c1", "experimental_target": "Estrogen receptor beta (Homo sapiens) (UniProt Q92731)", "class_label": "class 0"}
{"molecule": "CC(=O)c1ccc([N+](=O)[O-])cc1", "experimental_target": "Estrogen receptor beta (Homo sapiens) (UniProt Q92731)", "class_label": "class 0"}
{"molecule": "O=C=Nc1cccc(C(F)(F)F)c1", "experimental_target": "Estrogen receptor beta (Homo sapiens) (UniProt Q92731)", "class_label": "class 0"}
{"molecule": "CCCCCC[C@@H](O)C/C=C\\CCCCCCCC(=O)O", "experimental_target": "Estrogen receptor beta (Homo sapiens) (UniProt Q92731)", "class_label": "class 0"}
{"molecule": "Cc1ccccc1S", "experimental_target": "Estrogen receptor beta (Homo sapiens) (UniProt Q92731)", "class_label": "class 0"}
{"molecule": "CC1(C)O[C@@H]2C[C@H]3[C@@H]4C[C@H](F)C5=CC(=O)C=C[C@]5(C)[C@H]4[C@@H](O)C[C@]3(C)[C@]2(C(=O)CO)O1", "experimental_target": "Estrogen receptor beta (Homo sapiens) (UniProt Q92731)", "class_label": "class 0"}
{"molecule": "CCC(C)COC(=O)CC(C)C (configuration not stated)", "experimental_target": "Estrogen receptor beta (Homo sapiens) (UniProt Q92731)", "class_label": "class 0"}
{"molecule": "C/C=C(/C(=C/C)c1ccc(O)cc1)c1ccc(O)cc1", "experimental_target": "Estrogen receptor beta (Homo sapiens) (UniProt Q92731)", "class_label": "class 1"}
{"molecule": "CCCCOc1ccc(OCCCN2CCOCC2)cc1", "experimental_target": "Estrogen receptor beta (Homo sapiens) (UniProt Q92731)", "class_label": "class 0"}
{"molecule": "CC(=O)OCCN(CCOC(C)=O)c1ccc(N=Nc2ccc([N+](=O)[O-])cc2C#N)cc1", "experimental_target": "Estrogen receptor beta (Homo sapiens) (UniProt Q92731)", "class_label": "class 0"}
{"molecule": "O=C(O)CCCCCCCCCCCBr", "experimental_target": "Estrogen receptor beta (Homo sapiens) (UniProt Q92731)", "class_label": "class 0"}
{"molecule": "O=C(O)CCC(=O)C(=O)O", "experimental_target": "Estrogen receptor beta (Homo sapiens) (UniProt Q92731)", "class_label": "class 0"}
